assay: qHTS assay to identify small molecule agonists of the progesterone receptor (PR) signaling pathway - cell viability counter screen (AID 1346799); details: PR-UAS-bla HEK293T viability, CellTiter-Glo luminescence, 16 h; series mostly up to 92.4 µM; also: nearly all actives have a fitted effect of over 45% in size
Inconclusive results are not listed. Active and inactive are the calls of the source. Calls follow the shape of the full dose curve.
In this exercise, the only acceptable responses are t for active, f for inactive

Consider the worked cases shown below.
CC(=O)OC1(c2ccccc2)CCN(CCc2ccccc2)CC1
f
ClCc1ccc(Cl)cc1Cl
f
O=C1NCN(c2ccccc2)C12CCN(CC1COc3ccccc3O1)CC2 (configuration not stated)
f
CC1CCC(C(C)C)C(OC(=O)c2ccccc2N)C1 (configuration not stated)
t
CCOC(=O)OC1=C(c2cc(C)ccc2C)C(=O)NC12CCC(OC)CC2 (configuration not stated)
f
Oc1ccc2ccc3cccc4ccc1c2c34
f
Nc1ccccc1C(=O)OC/C=C/c1ccccc1
f
C[C@]12CC[C@H](O)C[C@H]1CC[C@@H]1[C@@H]2C[C@@H](O)[C@]2(C)[C@@H](C3=CC(=O)OC3)CC[C@]12O
t

Write down the call the test reported for this molecule. Item: `Cc1cc(C(C)(C)c2cc(C)c(O)c(C)c2)cc(C)c1O` t

Please let me know the test result on file for `CC(=[OH+])/C=C(/C)[O-].CC(=[OH+])/C=C(\C)[O-].CC(=[OH+])/C=C(\C)[O-].[Fe]` . f

Hi, sorry to bother you, what did the test record for `CCc1nn(C)c(C(=O)NCc2ccc(C(C)(C)C)cc2)c1Cl` ? t

So what was the verdict on `COP(N)(=S)OC` in this test? f

Record request — test call for `N#Cc1ccc(O)cc1` f

----------
experiment: qHTS assay to identify small molecule agonists of H2AX - cell viability counter screen (AID 1224847); conditions: CHO-K1 viability, CellTiter-Glo luminescence, 3 h; series mostly up to 154 µM; also: nearly all actives have a fitted effect of over 30% in size
Results filed as inconclusive are left out. Active and inactive are the calls of the source. Calls come from the whole dose curve.
Classes to choose from: YES = active, NO = inactive

Here's what some known entries look like.
Oc1cc(Cl)c(Cl)c(Cl)c1
YES
CSCCCN=C=S
NO
ClCc1ccccc1CCl
NO
CCc1cc(C)cc(CC)c1-c1c(OC(=O)C(C)(C)C)n2n(c1=O)CCOCC2
NO
C[C@H]1O[C@@H](O[C@H]2[C@@H](O)C[C@H](O[C@H]3[C@@H](O)C[C@H](O[C@H]4CC[C@@]5(C)[C@H](CC[C@@H]6[C@@H]5CC[C@]5(C)[C@@H](C7=CC(=O)OC7)CC[C@]65O)C4)O[C@@H]3C)O[C@@H]2C)C[C@H](O)[C@@H]1O
NO
CC(C)C(=O)Cl
NO

Please look at the following compound next.
Could you check what this test reported for O=C1c2ccccc2C(=O)C1C(=O)C(c1ccccc1)c1ccc(Cl)cc1 (centres undefined) ? NO

----------
assay: qHTS assay to identify small molecule agonists of the NFkB signaling pathway - cell viability counter screen (AID 1159515); details: NFkB-bla ME-180 viability, CellTiter-Glo luminescence, 5 h; series mostly up to 61 µM; also: nearly all actives have a fitted effect of over 55% in size
Results filed as inconclusive are left out. Active and inactive are the calls of the source. The call rests on the fitted dose curve.
Your response should consist of one outcome taken from t = active, f = inactive

CCCCN(CCCC)C(=S)[S-].CCCCN(CCCC)C(=S)[S-].[Zn+2]
f
CCOP(=S)(OCC)OC(Cl)C(Cl)(Cl)Cl (centres undefined)
f
CC(C)(O)c1cnn2c(-c3ccc(F)c(-c4c(F)cccc4C#N)c3)cnc2n1
f

Please let me know the test result on file for CCCCCCCCCCCCCN1CC(C)OC(C)C1 (centres undefined) . f

Record lookup: outcome of this test for `Oc1ccc(C2(c3ccc(O)cc3)c3ccccc3-c3ccccc32)cc1` ? t

Test call, this compound: `ClCc1ccc(Cl)cc1Cl` f

----------
assay: qHTS assay to identify small molecule antagonists of the constitutive androstane receptor (CAR) signaling pathway - cell viability counter screen (AID 1224837); conditions: HepG2-CYP2B6-hCAR viability, CellTiter-Fluor, 23 h, co-treated with 50 nM CITCO; series mostly up to 92.4 µM; also: nearly all actives have a fitted effect of over 45% in size
Results filed as inconclusive are left out. Activity calls are given as the source filed them. The call rests on the fitted dose curve; in most records, active means well fitted cell-killing curve with a large enough effect in the repeat runs; inconclusive means weak or mixed curves, or effect the other way; inactive means flat fitted curve, though single readings scatter.
Pick one and only one: active, inactive

CC(C)Oc1cccc(NC(=O)c2ccccc2C(F)(F)F)c1
inactive
OC(Cc1ccccc1Cl)(Cn1cncn1)C1(Cl)CC1 (stereo not drawn)
inactive
COC(=O)N(C(=O)N1COC2(C(=O)OC)Cc3cc(Cl)ccc3C2=N1)c1ccc(OC(F)(F)F)cc1 (stereo not drawn)
inactive
CCOC(=O)OC1=C(c2cc(C)ccc2C)C(=O)NC12CCC(OC)CC2 (stereo not drawn)
inactive
C[C@@H](Oc1ccc(Cl)cc1Cl)C(=O)O
inactive

Per the assay record, what outcome was assigned to `Fc1cccc(Cl)c1CCl` ? inactive

What was the test verdict on `CC1(C)CN=C(NN=C(/C=C/c2ccc(C(F)(F)F)cc2)/C=C/c2ccc(C(F)(F)F)cc2)NC1` ? active

Outcome? CC(O)C#N (stereo not drawn) inactive

----------
test: qHTS assay to identify small molecule antagonists of the estrogen receptor alpha (ER-alpha) signaling pathway using the BG1 cell line - cell viability counter screen (AID 743081); conditions: BG1Luc4E2 viability, CellTiter-Fluor, 22 h; series mostly up to 70.3 µM;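 also: compound given together with 17beta-estradiol as the ER stimulus; % is scaled to controls: 0 for no effect and ±100 for the full control effect; nearly all actives have a fitted effect of over 45% in size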
Inconclusive results are not listed. Activity calls are given as the source filed them. Calls come from the whole dose curve; as a rule, active = well fitted cell-killing curve with a large enough effect in the repeat runs; inconclusive = weak or mixed curves, or effect the other way; inactive = flat fitted curve, though single readings scatter.
measurement-label: outcome

The following compounds have reported results that may help.
CCCN(CC)CC1COC2(CCC(C(C)(C)C)CC2)O1 (stereo unspecified)
inactive
O=C1NCN(c2ccccc2)C12CCN(CC1COc3ccccc3O1)CC2 (stereo unspecified)
inactive
O=S(=O)(c1ccc(Cl)cc1)c1ccc(Cl)cc1
inactive
CCCCCCCCc1ccc(O)cc1
inactive
CC(=O)O[C@H]1CC[C@@]2(C)C(=CC[C@@H]3[C@@H]2CC[C@]2(C)C(=O)CC[C@@H]32)C1
inactive

Briefly, outcome measured for `CCCCCCCCCBr` : inactive

----------
target: Nuclear receptor subfamily 1 group I member 3 (Homo sapiens) (UniProt Q14994); experiment: qHTS assay to identify small molecule antagonists of the constitutive androstane receptor (CAR) signaling pathway (AID 1224838); settings: HepG2-CYP2B6-hCAR luciferase, CITCO-stimulated, 24 h; series mostly up to 92.4 µM;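 also: HepG2 cells stably expressing hCAR with CYP2B6 luciferase reporter stimulated by CITCO; nearly all actives have a fitted effect of over 40% in size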
Sequence (Q14994 whole entry, looked up): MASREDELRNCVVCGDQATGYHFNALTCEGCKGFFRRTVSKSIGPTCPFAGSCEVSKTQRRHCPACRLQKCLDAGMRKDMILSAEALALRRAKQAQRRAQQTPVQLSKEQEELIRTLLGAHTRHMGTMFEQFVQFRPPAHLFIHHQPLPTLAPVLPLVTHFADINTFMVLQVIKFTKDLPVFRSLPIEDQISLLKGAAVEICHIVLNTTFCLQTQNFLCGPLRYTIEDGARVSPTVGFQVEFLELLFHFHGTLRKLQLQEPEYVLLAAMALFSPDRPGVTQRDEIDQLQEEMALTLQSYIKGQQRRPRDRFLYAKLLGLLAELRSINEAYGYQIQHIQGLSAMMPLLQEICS
Records with an inconclusive call do not appear. Activity calls are given as the source filed them. Calls come from the whole dose curve; as a rule, active = well fitted inhibition curve with a large enough effect in the repeat runs; inconclusive = weak or mixed curves, or effect the other way; inactive = no such curve, though single readings can be large or run the other way.
Assign a class; possible classes are active, inactive

As a guide, the following entries are already answered.
ClCc1ccccc1CCl
inactive
O=CC(Br)(Br)Br
active
CN(C)S(=O)(=O)N(SC(F)(Cl)Cl)c1ccccc1
active

Continue with the compound presented below.
Which outcome was entered for the compound `O=C(CCl)C(Cl)Cl` in this test? active

----------
biological target: Nuclear receptor ROR-gamma (Homo sapiens) (UniProt P51449); test: qHTS assay to identify small molecule antagonists of the retinoid-related orphan receptor gamma (ROR-gamma) signaling pathway (AID 1159521; also: nearly all actives have a fitted effect of over 50% in size); settings: Tet-on RORgamma CHO cells, RORE-luciferase, 16 h; series mostly up to 92.4 µM
Results filed as inconclusive are left out. Activity calls are given as the source filed them. The call rests on the fitted dose curve; in most records, active means well fitted inhibition curve with a large enough effect in the repeat runs; inconclusive means weak or mixed curves, or effect the other way; inactive means no such curve, though single readings can be large or run the other way.
Just give me one of these, please: 1 (active), -1 (inactive)

CN(CCCC(O)c1cccnc1)N=O (stereo unspecified)
-1
ClCCN1CCOCC1
-1
COc1cc(N)c(Cl)cc1C(=O)NC1CN2CCC1CC2 (stereo unspecified)
-1

Recorded test call requested for `ClC1=C(Cl)[C@]2(Cl)[C@@H]3[C@@H](Cl)[C@@H](Cl)C[C@@H]3[C@@]1(Cl)C2(Cl)Cl` -1

Assay result, entry `C=COCCCl` — outcome? -1

Recorded test call requested for `Oc1cc(Cl)c(Cl)c(Cl)c1` 1

Could you please tell me the result logged for `C=CC(=O)OCC(COC(=O)C=C)(COC(=O)C=C)COC(=O)C=C` in this assay? 1

----------
assay: qHTS assay to identify small molecule agonists of the vitamin D receptor (VDR) signaling pathway - cell viability counter screen (AID 743224); settings: VDR-bla HEK293T viability, CellTiter-Glo luminescence, 16 h; series mostly up to 62.6 µM; also: % is scaled to controls: 0 for no effect and ±100 for the full control effect; nearly all actives have a fitted effect of over 50% in size
Results filed as inconclusive are left out. The source made the active and inactive calls. Calls follow the shape of the dose curve; as a rule, active = well fitted cell-killing curve with a large enough effect in the repeat runs; inconclusive = weak or mixed curves, or effect the other way; inactive = no such curve, though single readings can be large or run the other way.
measurement-label: outcome

CC(C)CCCCCOC(=O)c1ccccc1C(=O)OCCCCCC(C)C
inactive
CN(C)C1CSSSC1
inactive
C[C@]12Cc3nonc3C[C@@H]1CC[C@@H]1[C@@H]2CC[C@@]2(C)[C@H]1CC[C@]2(C)O
inactive

----------
target: Androgen receptor (Homo sapiens); test: qHTS assay to identify small molecule antagonists of the androgen receptor (AR) signaling pathway (AID 743035); conditions: HEK293 AR-UAS-bla, R1881-stimulated, beta-lactamase FRET, 16 h; series mostly up to 58.5 µM
Results filed as inconclusive are left out. Active and inactive are the calls of the source. Calls follow the shape of the dose curve; as a rule, active = well fitted inhibition curve with a large enough effect in the signal ratio in the repeat runs (not every such curve was filed as active); inconclusive = weak or mixed curves, or effect the other way; inactive = no such curve, though single readings can be large or run the other way; the % refers to the signal ratio.
Use one of these outcomes when replying: active, inactive

CNC(C)Cc1ccc2c(c1)OCO2 (configuration not stated)
inactive
O=C(CCl)Nc1ccccc1
active
C=CC(=O)OCC(COC(=O)C=C)(COC(=O)C=C)COC(=O)C=C
active
CC(=O)C(Cl)(Cl)Cl
active
FC(Cl)(Cl)Cl
inactive

Please indicate how the test categorized `CC(=O)/C=C/c1ccc2c(c1)OCO2` . active

What was the test verdict on `CN(C)CCc1c[nH]c2ccc(O)cc12` ? inactive
